Biological target: T1, extracellular domain of human BCMA (human, UniProt Q02223 1-54)
T1 construct: amine-linked to Octet AR2G tips; also called hsBCMA; BCMA (human)
T1 sequence: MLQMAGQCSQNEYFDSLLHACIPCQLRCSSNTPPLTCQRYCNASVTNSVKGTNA
Test: Octet BLI; Fab 200 nM
EXPERIMENTAL READOUT: pKd
Just so you know, pKd here is -log10 of the concentration in molar units; reply with that number alone.

Exercise: # pKd lookup, item AB200-(2Vk30)_R2-VH-v37 (Fab, V domains shown, also called AB200_VH2-37_VK2-30) VH: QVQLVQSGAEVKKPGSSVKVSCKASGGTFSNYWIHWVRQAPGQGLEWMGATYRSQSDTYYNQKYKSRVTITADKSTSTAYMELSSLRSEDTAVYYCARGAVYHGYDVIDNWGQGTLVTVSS VL: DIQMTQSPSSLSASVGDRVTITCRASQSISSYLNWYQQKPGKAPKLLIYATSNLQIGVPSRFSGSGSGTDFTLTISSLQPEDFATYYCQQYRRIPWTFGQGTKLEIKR
Key: 8.94

Exercise: May I ask what pKd has been recorded for AB200-(2Vk31)_R2-VH-v3 (Fab, V domains shown, also called AB200_VH2-03_VK2-31) VH: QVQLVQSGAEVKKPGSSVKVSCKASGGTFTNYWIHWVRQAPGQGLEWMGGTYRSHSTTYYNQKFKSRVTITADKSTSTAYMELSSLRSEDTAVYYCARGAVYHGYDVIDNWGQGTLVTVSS VL: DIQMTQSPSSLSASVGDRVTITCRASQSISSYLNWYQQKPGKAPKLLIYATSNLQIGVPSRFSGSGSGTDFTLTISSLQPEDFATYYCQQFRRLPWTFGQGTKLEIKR ?
Key: 8.57

Exercise: Dear colleague, I am looking for the recorded pKd of the following binder: AB200-(2Vk35)_R2-VH-v6 (Fab, V domains shown, also called AB200_VH2-06_VK2-35) VH: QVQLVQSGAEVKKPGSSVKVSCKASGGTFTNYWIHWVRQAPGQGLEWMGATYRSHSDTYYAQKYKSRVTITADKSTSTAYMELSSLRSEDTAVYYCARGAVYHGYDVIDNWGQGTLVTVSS VL: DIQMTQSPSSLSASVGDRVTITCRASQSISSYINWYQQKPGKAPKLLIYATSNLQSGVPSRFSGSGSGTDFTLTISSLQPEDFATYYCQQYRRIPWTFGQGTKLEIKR
Key: 8.78
